# Target Of Assay: HO-1 (Rattus norvegicus)
# Construct: This microsomal preparation represents the most native (i.e., closest to in vivo) form of HO-1; from tissue; host or cells: rat spleen microsomes (male Sprague-Dawley rats)
# Sequence (P06762 whole entry): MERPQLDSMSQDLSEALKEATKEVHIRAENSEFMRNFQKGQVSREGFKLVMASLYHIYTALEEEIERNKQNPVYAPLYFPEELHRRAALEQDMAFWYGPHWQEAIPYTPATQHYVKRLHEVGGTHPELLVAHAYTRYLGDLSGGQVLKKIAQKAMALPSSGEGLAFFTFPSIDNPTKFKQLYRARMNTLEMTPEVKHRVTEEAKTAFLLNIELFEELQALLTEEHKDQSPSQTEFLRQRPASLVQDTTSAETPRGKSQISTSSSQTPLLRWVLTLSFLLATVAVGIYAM
# Procedure Details: HO-1 enzymatic activity in microsomal fraction of rat spleen (bilirubin formation)
# Type: biochemical
# Condition Notes: rat spleen microsomal fraction; read-out: HO-1 IC50 (μM) ± SD
Measured Attribute: IC50 (µM)
Only the number, expressed in µM, is required.

The following compounds have reported results that may help.
Cc1ccc(C(=O)Nc2cc(OCCCCn3ccnc3)ccc2Br)cc1Nc1nccc(-c2cccnc2)n1 116
Cc1ccc(C(=O)Nc2ccccc2OCCCCn2ccnc2)cc1Nc1nccc(-c2cccnc2)n1 149
Cc1ccc(C(=O)Nc2cc(Br)cc(OCCCCn3ccnc3)c2)cc1Nc1nccc(-c2cccnc2)n1 51
Cc1ccc(C(=O)Nc2ccc(Br)cc2OCCCCn2ccnc2)cc1Nc1nccc(-c2cccnc2)n1 83.4
Cc1ccc(C(=O)Nc2cc(OCCCCn3ccnc3)cc(C(F)(F)F)c2)cc1Nc1nccc(-c2cccnc2)n1 65.4
Cc1ccc(C(=O)Nc2ccc(OCCCCn3ccnc3)cc2)cc1Nc1nccc(-c2cccnc2)n1 44.8
Cc1ccc(OCCCCn2ccnc2)c(NC(=O)c2ccc(C)c(Nc3nccc(-c4cccnc4)n3)c2)c1 3060
Cc1ccc(C(=O)Nc2cccc(OCCCCn3ccnc3)c2)cc1Nc1nccc(-c2cccnc2)n1 64.6

Data point: Cc1ccc(C(=O)Nc2ccc(OCCCCn3ccnc3)c(Br)c2)cc1Nc1nccc(-c2cccnc2)n1 ; IC50 = 55.1

Data point: Cc1ccc(C(=O)Nc2ccc(Br)c(OCCCCn3ccnc3)c2)cc1Nc1nccc(-c2cccnc2)n1 ; IC50 = 100
